Tested on: PfAP2-EXP AP2 domain (GST-tagged)
Test: gcPBM binding intensity (ln(normalized median fluorescence intensity)); higher = stronger DNA binding
In all, about 25,000 sequences were measured (“ln(normalized median fluorescence intensity)”: median about 8.6, highest 2% from about 10 on). For the sample, the highest values were picked, then their nearest neighbours and some sequences at random.
Property label: gcPBM binding intensity (ln)
API note: the answer field is a bare number with no unit suffix.

A selection of reference data follows.
1) ATATATATATATATATGTACATATTATTATTTTGAT [XGTACX_site4752] ... 10.1
2) AATGGGTAAACATACACACACACATATATATATATA [CACACA_site1991] ... 10.1
3) CATATATATATATATTGTACAAGATTGTTTTTTTAT [XGTACX_site3913] ... 8.76
4) ATATTGTTATATGTTTGTACATATTTTTTATATTTT [XGTACX_site6834] ... 8.93

# context switch: different sequence, same gcPBM binding intensity (ln)
-- ask Quick one: gcPBM binding intensity (ln) for ATTAATTATGTATTTCAACAAAGAAGTGTTATATAT [GTGCAC_negctrl_site215] ?
-- reply 8.49

---

Test system: PfAP2-EXP AP2 domain (GST-tagged)
Test: gcPBM binding intensity (ln(normalized median fluorescence intensity)); higher = stronger DNA binding
The full ranking holds about 25,000 sequences; the median of “ln(normalized median fluorescence intensity)” is about 8.6, and the highest 2% start at about 10. What follows is part of a selection rich in the highest values, with near analogues and random picks from the rest.
gcPBM binding intensity (ln) listing for selected sequences.
API note: the answer field is a bare number with no unit suffix.

-- ask Look up gcPBM binding intensity (ln) with PfAP2-EXP AP2 domain (GST-tagged) for this sequence: CATACACAGAAACACACACACATATATACATATATA [CACACA_site1094]
-- reply 8.59

-- ask Look up gcPBM binding intensity (ln) with PfAP2-EXP AP2 domain (GST-tagged) for this sequence: TTTTATACATAAATGTGTACGTATATATAATGAATT [XGTACX_site2762]
-- reply 8.59

-- ask Look up gcPBM binding intensity (ln) with PfAP2-EXP AP2 domain (GST-tagged) for this sequence: AGGATAATATACAAAAGTACATAAAACTAAAAAAAC [XGTACX_site605]
-- reply 9.01

-- ask Look up gcPBM binding intensity (ln) with PfAP2-EXP AP2 domain (GST-tagged) for this sequence: GATCACTGAATAAAGGCACACATCTGACTAATTTTT [CACACA_site66]
-- reply 8.36

-- ask Look up gcPBM binding intensity (ln) with PfAP2-EXP AP2 domain (GST-tagged) for this sequence: TTTGTGTAAAGAATCAGTACATATAATATATATATA [XGTACX_site1972]
-- reply 9.34

-- ask Look up gcPBM binding intensity (ln) with PfAP2-EXP AP2 domain (GST-tagged) for this sequence: ATAAAATGAACCTTTTGTACATATATATATATATAT [XGTACX_site4610]
-- reply 10.1

-- ask Look up gcPBM binding intensity (ln) with PfAP2-EXP AP2 domain (GST-tagged) for this sequence: TATTTATTGTGATACTTATATTATTTTATGATTAAA [CACACA_negctrl_site901]
-- reply 8.27

-- ask Look up gcPBM binding intensity (ln) with PfAP2-EXP AP2 domain (GST-tagged) for this sequence: TTTTTATTTATATGATACTTATATATATATATATAT [CACACA_negctrl_site462]
-- reply 10.2

-- ask Look up gcPBM binding intensity (ln) with PfAP2-EXP AP2 domain (GST-tagged) for this sequence: ATATATATATATAGTTGTACTTAATTTTATATGTTA [XGTACX_site5256]
-- reply 10.2

-- ask Look up gcPBM binding intensity (ln) with PfAP2-EXP AP2 domain (GST-tagged) for this sequence: ATAATATAGAAACACACACACATATATATATACATT [CACACA_site555]
-- reply 8.71

-- ask Look up gcPBM binding intensity (ln) with PfAP2-EXP AP2 domain (GST-tagged) for this sequence: TAACATATTTTTAATACACACTTAAAAAAGTACTTA [CACACA_site4875]
-- reply 8.31

-- ask Look up gcPBM binding intensity (ln) with PfAP2-EXP AP2 domain (GST-tagged) for this sequence: AAAAAAAAAAAAAACACACACACACCCAAATATATA [CACACA_site1169]
-- reply 8.71

---

Test system: PfAP2-EXP AP2 domain (GST-tagged)
Assay: gcPBM binding intensity (ln(normalized median fluorescence intensity)); higher = stronger DNA binding
Whole data set: some 25,000 sequences, median “ln(normalized median fluorescence intensity)” near 8.6, cut for the highest 2% near 10. This excerpt belongs to a sample that is enriched for the highest values.
gcPBM binding intensity (ln) listing for selected sequences.
API note: the answer field is a bare number with no unit suffix.

1) CACACCCACAAAAACACACACAAAGGTGTTCTTATA [CACACA_site1293] ... 9.43
2) TTATGTTCTTTAAAACCACACACCCCCCAACCCCCC [CACACA_site8742] ... 10.9
3) TTTTTTTTTTTTTTTTTTTTTTTTTTTTTTTGGGGG [CACACA_negctrl_site1570] ... 9.13
4) TATTACATTATATAAACATGCAAAACTATATATTAT [TGCATGCA_site601] ... 8.63

# context switch: different sequence, same gcPBM binding intensity (ln)
-- ask Quick one: gcPBM binding intensity (ln) for CAAACCCACCAACACACACACACAAAAATGATTAAA [CACACA_site2432] ?
-- reply 8.49

---

gcPBM binding intensity (ln) listing for selected sequences.
Tested on: PfAP2-EXP AP2 domain (GST-tagged)
Assay: gcPBM binding intensity (ln(normalized median fluorescence intensity)); higher = stronger DNA binding
The full ranking holds about 25,000 sequences; the median of “ln(normalized median fluorescence intensity)” is about 8.6, and the highest 2% start at about 10. The full list was thinned out, with the highest values kept by preference.
API note: the answer field is a bare number with no unit suffix.

A selection of reference data follows.
1. TATATATAAATATTCAGTACATAGTGCTATTAAGTG [XGTACX_site1979] ... 8.61
2. ATTTTTTTTGTAAAAGTGCATATATATATATATATA ... 10.4
3. AATACACAAATATATTGTACATATATATATATATAT [XGTACX_site2440] ... 9.85
4. TGTTTATGTATCAATTGTACAAAAAAAAAAAAAAAA [XGTACX_site1590] ... 8.26
5. TAAACCAAAAAAAGTAGTACAAATATTATAAAAAAA [XGTACX_site8497] ... 8.69
6. ACTAATTACTATAAAACACACATATATTTATTTATA [CACACA_site7263] ... 8.51
7. ACTAATTACTATAAAACACACATATATATATATATA [CACACA_site2591] ... 10.2
8. TTTTGTTGCTCTTTTTTTTTTTTTTTTAACTGTATG [CACACA_negctrl_site1072] ... 8.57
9. AAAAAAAAAATTCATTGTACATATATATATATATAT [XGTACX_site8346] ... 10.2
10. CATATAAATAAACACACACACACATATATATATATA [CACACA_site5309] ... 10.2

# context switch: different sequence, same gcPBM binding intensity (ln)
-- ask Quick one: gcPBM binding intensity (ln) for AGTGTGCTCAGCTTAGCACAAATTGGAATACCATGT [CACACA_negctrl_site367] ?
-- reply 8.63

---

System: PfAP2-EXP AP2 domain (GST-tagged)
Test: gcPBM binding intensity (ln(normalized median fluorescence intensity)); higher = stronger DNA binding
The full ranking holds about 25,000 sequences; the median of “ln(normalized median fluorescence intensity)” is about 8.6, and the highest 2% start at about 10. The list comes from a sample in which the highest values are over-represented; it also holds close analogues and randomly drawn sequences.
Property label: gcPBM binding intensity (ln)

A selection of reference data follows.
1. TCATATTATAAAAAATGTACAAGGAAAAAATATATA [XGTACX_site337] ... 9.06
2. TATATATAGCATATTTCACACACACCGAATGAATAT [CACACA_site9182] ... 8.64
3. TATAAAAATAATATTACACACATGTAAAATGCCCGT [CACACA_site7522] ... 8.49
4. AGAATCACCAAATATGTACACACCTTAACATGTTTA [CACACA_site2068] ... 9.01
5. AAACAAAATATGGTTCATGAGCAAAAGTTTATTTTG [XGTACX_negctrl_site531] ... 8.69
6. AATACATATAATACAACACACAAGTAATATAAACCT [CACACA_site3597] ... 8.87
7. GGGGACGCGGGTGGGGGTACTCACACTATGCAAAAT [XGTACX_site7745] ... 10.3
8. TAGATACATACACGCACACACATATATATATATATA [CACACA_site12] ... 10.2

-- ask Quick one: gcPBM binding intensity (ln) for ATATATATATAGTGCACACATATAAAATATATATAA [CACACA_site2745] ?
-- reply 9.9

-- ask Quick one: gcPBM binding intensity (ln) for AATATATATATATGTGCACACATATATAATATGTAT [CACACA_site716] ?
-- reply 8.53

-- ask Quick one: gcPBM binding intensity (ln) for TATATATATATATGTGCACACATAATAAAAAAAAAA [CACACA_site3830] ?
-- reply 10.3

-- ask Quick one: gcPBM binding intensity (ln) for GGATAATATATTAGAACACACATATAGATGTAAAAA [CACACA_site6229] ?
-- reply 8.57

-- ask Quick one: gcPBM binding intensity (ln) for TTATAAATATTCTTGGGTACTTAAGATGATATGTAA [XGTACX_site5496] ?
-- reply 8.34

-- ask Quick one: gcPBM binding intensity (ln) for `TTATTATTATTACTAGTGCATTAATTATATATGTAA` ?
-- reply 8.72

-- ask Quick one: gcPBM binding intensity (ln) for AAGTAATACAACACGCACATATATATATATATATAT [GTGCAC_negctrl_site89] ?
-- reply 10.3

-- ask Quick one: gcPBM binding intensity (ln) for `ATATTTTATATAATAGTGCAAATAATATTAAATAAT` ?
-- reply 8.66

-- ask Quick one: gcPBM binding intensity (ln) for ATCTATATAATATATACACACAAATATACAAAAAAA [CACACA_site1013] ?
-- reply 8.64

-- ask Quick one: gcPBM binding intensity (ln) for ATACAACATATATATACACACATATAATAATAATAA [CACACA_site3367] ?
-- reply 8.62

-- ask Quick one: gcPBM binding intensity (ln) for TTTATATTTATATAAATATAATATATATGAATTATA [XGTACX_negctrl_site466] ?
-- reply 8.19

-- ask Quick one: gcPBM binding intensity (ln) for ATGCAAATGTGCATCACACACACTAATGGGTATGTA [CACACA_site2893] ?
-- reply 8.39
